The values you see were collected from patent US10988482B2.

subject of test: IRAK4 kinase (Homo sapiens (Human), UniProt Q9NWZ3)
Sequence (Q9NWZ3 whole entry): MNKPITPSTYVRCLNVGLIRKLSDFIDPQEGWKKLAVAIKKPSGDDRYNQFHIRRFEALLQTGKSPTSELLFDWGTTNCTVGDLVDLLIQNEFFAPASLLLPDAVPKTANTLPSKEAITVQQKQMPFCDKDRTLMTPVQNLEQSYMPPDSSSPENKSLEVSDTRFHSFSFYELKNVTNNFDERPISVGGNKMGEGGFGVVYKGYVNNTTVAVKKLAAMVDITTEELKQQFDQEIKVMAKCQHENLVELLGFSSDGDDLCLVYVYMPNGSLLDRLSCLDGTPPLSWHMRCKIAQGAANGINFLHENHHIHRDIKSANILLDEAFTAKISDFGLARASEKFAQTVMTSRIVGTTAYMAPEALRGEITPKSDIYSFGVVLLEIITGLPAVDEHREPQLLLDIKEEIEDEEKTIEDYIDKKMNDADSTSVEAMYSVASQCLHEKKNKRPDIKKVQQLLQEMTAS
pIC50: −log10 of the molar value.
measurement name: pIC50

In the examples that follow, each entry is paired with its recorded pIC50.
compound smiles	value
C[C@]1(O)CC[C@H](Nc2nc(Nc3cc(C(=O)NC4CCNCC4)ns3)nc3ccsc23)CC1	≥ 7.00
O[C@H]1CC[C@H](Nc2nc(Nc3cnn(-c4ccncc4)c3)nc3ccsc23)CC1	≥ 7.00

Okay, now this molecule:
Inquiry: Read off the recorded pIC50 for `C[C@]1(O)CC[C@H](Nc2nc(Nc3ccc(C(=O)NC4CCNCC4)cc3)nc3ccsc23)CC1`
Reply text: 6.00 to 7.00
